Source listed as paper PMC9928118.

Form field: pIC50 (one value per entry).
- subject_of_test: T1, catalytic domain of Calcineurin (Cn A), residues 2-347 with Y341S, L343A, M347D (UniProt Q08209 2-347, Y341S | L343A | M347D)
- T1 construct: Calcineurin catalytic domain (calcineurin A), residues 2-347, with substitutions Y341S, L343A, M347D; Expressed as a cleavable GST fusion; source: E. coli BL21, purified (Glutathione Sepharose 4 Fast Flow, size exclusion on Superdex 75)
- procedure_summary: fluorescence polarisation; competition: variable concentrations of non-labeled peptide added to 100 nM FITC-labeled PVIVIT peptide and 4 uM Cn A, 96-well plate, triplicate; fitted to a single site inhibition model
- protocol_conditions: both partners purified
Please express pIC50 as -log10 of the molar concentration.

Below, each entry is followed by its recorded pIC50 result.
Ac-ASVSNPEITVTSAETE-NH2 (cRBM-designed; source: synthetic peptide (peptide2 Inc)) [rbmRIPOR2]
4.10
Ac-ADGAGVGIVITVTEAE-NH2 (cRBM-designed (low temperature sampling); source: synthetic peptide (peptide2 Inc)) [rbmAKAP79_2]
4.16
Ac-ADEAVPQIIISAEELP-NH2 (source: synthetic peptide (peptide2 Inc)) [TRESK peptide]
4.27
Ac-ADEAIPEITITSAELP-NH2 (cRBM-designed (low temperature sampling); source: synthetic peptide (peptide2 Inc)) [rbmTRESK_2]
4.22
Ac-TYWTNPQFRVTLEDPD-NH2 (cRBM-designed (low temperature sampling); (Schistosoma mansoni CAPN11), 2 mutations; source: synthetic peptide (peptide2 Inc)) [rbmCAPN11]
3.59
Ac-HVSSSPRITITPTQHR-NH2 (cRBM-designed (low temperature sampling); source: synthetic peptide (peptide2 Inc)) [rbmRIPOR2_2]
3.70

Could you share which pIC50 value was measured for Ac-AAGAGVGIVITVTEAE-NH2 (cRBM-designed (low temperature sampling); source: synthetic peptide (peptide2 Inc)) [rbmAKAP79] ?
4.24

Follow-up entry: Ac-ADEAIPEIVISKPEEP-NH2 (cRBM-designed (low temperature sampling); source: synthetic peptide (peptide2 Inc)) [rbmTRESK]
4.85
